Molecular target: human CCR5 chemokine receptor (Homo sapiens, UniProt P51681)
Construct: expressed in transfected cells; host or cells: NIH 3T3 cells (mouse fibroblasts), membrane preparation
Sequence (P51681 whole entry): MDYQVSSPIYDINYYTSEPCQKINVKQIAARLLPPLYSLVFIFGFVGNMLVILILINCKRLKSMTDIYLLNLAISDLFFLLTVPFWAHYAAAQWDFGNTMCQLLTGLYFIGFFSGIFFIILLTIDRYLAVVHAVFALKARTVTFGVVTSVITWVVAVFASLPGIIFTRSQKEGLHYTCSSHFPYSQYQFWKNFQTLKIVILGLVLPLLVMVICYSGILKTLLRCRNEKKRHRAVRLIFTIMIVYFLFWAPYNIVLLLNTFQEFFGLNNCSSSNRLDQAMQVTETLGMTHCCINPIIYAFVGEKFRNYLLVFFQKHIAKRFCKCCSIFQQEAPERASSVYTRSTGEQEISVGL
Test: CCR5 membrane binding assay (inhibition of RANTES binding)
Conditions: membranes from NIH 3T3 cells expressing human CCR5; 125I-RANTES
Doc: threshold 2 nM (exclusive). Items with Ki beneath it return criterion met; others return criterion not met.

Query: Below 2 nM on Ki? Entry CC1(N2CCC(C(Oc3ccccn3)c3ccc(C(F)(F)F)cc3)CC2)CCN(C(=O)c2c(Cl)cncc2Cl)CC1 (stereo not shown)
Response: criterion met

Query: Below 2 nM on Ki? Entry Cc1ccnc(C)c1C(=O)N1CCC(C)(N2CCC(C(Oc3ccccn3)c3ccc(Br)cc3)CC2)CC1 (single isomer, unassigned)
Response: criterion met

Query: Below 2 nM on Ki? Entry CCO/N=C(\c1ccc(Br)cc1)C1CCN(C2(C)CCN(C(=O)c3c(C)ncnc3C)CC2)CC1
Response: criterion met

Query: Below 2 nM on Ki? Entry CCO/N=C(\c1ccc(Br)cc1)C1CCN(C2(C)CCN(C(=O)c3c(C)cc(-c4ccncc4)cc3C)CC2)CC1
Response: criterion met

Query: Below 2 nM on Ki? Entry Cc1ccnc(C)c1C(=O)N1CCC(C)(N2CCC(C(Oc3cnccn3)c3ccc(S(C)(=O)=O)cc3)CC2)CC1 (stereo not shown)
Response: criterion not met

Query: Below 2 nM on Ki? Entry Cc1ccnc(C)c1C(=O)N1CCC(C)(N2CCC(C(Oc3ccccn3)c3ccc(C(F)(F)F)cc3)CC2)CC1 (stereo not shown)
Response: criterion met

Query: Below 2 nM on Ki? Entry Cc1cccc(C)c1C(=O)N1CCC(C)(N2CCC(C(Oc3nccs3)c3ccc(Br)cc3)CC2)CC1 (stereo not shown)
Response: criterion met

Query: Below 2 nM on Ki? Entry CO/N=C(\c1ccc(Br)cc1)C1CCN(C2(C)CCN(C(=O)c3c(C)ncnc3C)CC2)CC1
Response: criterion not met

Query: Below 2 nM on Ki? Entry CCO/N=C(\c1ccc(C(F)(F)F)cc1)C1CCN(C2(C)CCN(C(=O)c3c(Cl)cncc3Cl)CC2)CC1
Response: criterion met

Query: Below 2 nM on Ki? Entry CC1(N2CCC(Cc3ccc(Br)cc3)CC2)CCN(C(=O)c2cccc3ccccc23)CC1
Response: criterion not met
